Assay: gradient 5% acetonitrile 3 min, to 50% in 2 min, to 85% in 15 min, held 3 min, 100 µL/min
Details: column: Zorbax Extend-C18 2.1 x 50 mm; eluents: water / acetonitrile, 0.1% formic acid
RP-LC retention time for assorted compounds
Express your answer in s, writing the number without its unit.

Solved cases below.
                                   compound  unit_spec  result_value
0  Cn1cnc(S(=O)(=O)N2CCc3c(c(-c4nncn4Cc4ccccc4)nn3C)C2)c1          s           682
1  CC(=O)Nc1ccc(CCc2nc3ccc(C(=O)NC(C)CCc4ccccc4)cc3[nH]2)cc1 (stereo not drawn)          s           682
2            CC1(CNC(=O)c2cccc(Br)c2)CCOCC1          s           797
3           O=C(Nc1nccs1)c1csc(Nc2ccccc2)n1          s           815
4  COc1ccccc1NC(=O)Cn1ncc2c(c1=O)N(CC1CC1)C(=O)CS2          s           794

Task: Quick one: RP-LC retention time of "COc1ccc(C2(C(=O)N3CCCN(Cc4noc(-c5ccccc5)n4)CC3)CC2)cc1" ?
Result: 703

Task: Further, for "O=C(Cn1c(=O)n(C2CC2)c(=O)c2nscc21)NCCC1=CCCCC1" ?
Result: 776

Task: Here is the next compound: "O=C(NCCc1csc(-c2ccccc2)n1)C1CCN(C(=O)COc2ccccc2)CC1"
Result: 806
